- targetUnderTest: MAP kinase p38 (Homo sapiens, UniProt O15264+Q15759+Q16539+P53778)
- methodDescription: Inhibitory activity against mitogen-activated protein kinase p38 at 10 e-4 to 10 e-8 M concentration
- Assay type: protein assay
observationType: IC50 (nM)
Your answer is read as nM, so omit the unit and give the number.

Exercise: Recall and state the measured IC50 for C[S+]([O-])c1ccc(CSc2nc(-c3ccc(F)cc3)c(-c3ccnc(F)c3)[nH]2)cc1 (stereo not given) .
Solution: 9300

Exercise: Provide IC50 value for the following molecule: CCNc1cc(-c2c(-c3ccc(F)cc3)nc(SC)n2C2CC(C)(C)NC(C)(C)C2)ccn1
Solution: 220

Exercise: Indicate its recorded IC50; the molecule in question is CSc1nc(-c2ccc(F)cc2)c(-c2ccnc(NCc3ccc(C)cc3)c2)[nH]1
Solution: 830

Exercise: Read the entry CCCn1c(SC)nc(-c2ccc(F)cc2)c1-c1ccncc1 and write its reported IC50.
Solution: 2200

Exercise: Look up and state reported IC50 for CSc1nc(-c2ccc(F)cc2)c(-c2ccnc(NC(C)=O)c2)n1C1CC(C)(C)NC(C)(C)C1
Solution: 340

---

- targetUnderTest: CYP3A4 (Homo sapiens)
- Sequence (P08684 whole entry): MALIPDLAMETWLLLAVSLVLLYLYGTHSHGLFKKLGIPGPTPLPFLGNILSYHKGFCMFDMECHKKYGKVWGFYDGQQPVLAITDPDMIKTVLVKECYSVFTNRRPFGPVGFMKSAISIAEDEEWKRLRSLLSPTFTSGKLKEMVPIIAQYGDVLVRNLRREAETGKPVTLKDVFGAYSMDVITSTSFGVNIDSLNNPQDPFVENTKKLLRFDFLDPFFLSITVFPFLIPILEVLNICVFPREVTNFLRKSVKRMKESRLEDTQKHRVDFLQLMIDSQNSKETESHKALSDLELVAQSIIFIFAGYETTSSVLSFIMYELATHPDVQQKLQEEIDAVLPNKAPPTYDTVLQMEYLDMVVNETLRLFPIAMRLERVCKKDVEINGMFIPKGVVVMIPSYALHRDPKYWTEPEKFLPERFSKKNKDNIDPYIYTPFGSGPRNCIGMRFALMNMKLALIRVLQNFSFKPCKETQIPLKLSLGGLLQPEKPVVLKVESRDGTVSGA
- methodDescription: Inhibition of Cytochrome P450 3A4 at 10 uM
- Format: ADME
observationType: inhibition at 10 µM (%)
Write the value in % as a bare number.

Exercise: Report value: inhibition at 10 µM, system: CYP3A4 (Homo sapiens), compound: CSc1nc(-c2ccc(F)cc2)c(-c2ccnc(NC(C)=O)c2)n1C1CC(C)(C)NC(C)(C)C1
Solution: 79

Exercise: State inhibition at 10 µM on CYP3A4 (Homo sapiens). Entry: CSc1nc(-c2ccc(F)cc2)c(-c2ccnc(NC(C)c3ccccc3)c2)[nH]1 (centres undefined)
Solution: 79.2

Exercise: Provide the reported inhibition at 10 µM (system: CYP3A4 (Homo sapiens)) for CSc1nc(-c2ccc(F)cc2)c(-c2ccnc(OC(C)C)c2)[nH]1
Solution: 49.6

Exercise: Please indicate recorded inhibition at 10 µM of CSc1nc(-c2ccc(F)cc2)c(-c2ccncc2)[nH]1 measured with CYP3A4 (Homo sapiens).
Solution: 81.4

Exercise: Name the recorded inhibition at 10 µM of C[S+]([O-])c1ccc(CSc2nc(-c3ccc(F)cc3)c(-c3ccncc3)[nH]2)cc1 (centres undefined) , assay system CYP3A4 (Homo sapiens).
Solution: 87.1

Exercise: Supply inhibition at 10 µM measured with CYP3A4 (Homo sapiens) for C[S+]([O-])c1ccc(-c2nc(-c3ccncc3)c(-c3ccc(F)cc3)[nH]2)cc1 (centres undefined) [SB-203580] .
Solution: 61

Exercise: Report inhibition at 10 µM under test system CYP3A4 (Homo sapiens) for CSc1nc(-c2ccc(F)cc2)c(-c2ccnc(NC(C)=O)c2)n1C .
Solution: 16.5

Exercise: Report inhibition at 10 µM on CYP3A4 (Homo sapiens) for this entry: CSc1nc(-c2ccc(F)cc2)c(-c2ccnc(Cl)c2)[nH]1
Solution: 48.8

Exercise: Provide inhibition at 10 µM, system CYP3A4 (Homo sapiens), entry CSc1nc(-c2ccc(F)cc2)c(-c2ccncc2)n1C1CC(C)(C)NC(C)(C)C1
Solution: 49.6
